# experimentDescription: Drug uptake in pre-cannulated Sprague-Dawley rat prostate gland at 10 mg/kg administered via oral gavage after 24 hrs by LC-MS/MS analysis
# Format: ADME, organism-based
# measurementSetup: read-out: Drug uptake
Recorded concentration at 24 h by entry

structureNotation	measureUnit	concentration at 24 h
C[C@H](N)[C@@H](O)C[C@@H](O)CCCCCCCCCCCCC(F)(F)F	µM	3.46
CCCCCCCCCCCCC(F)(F)[C@H](O)C[C@H](O)[C@H](C)N	µM	6.94
CCCCCCCCCCCCC[C@H](O)C[C@H](O)[C@H](C)N	µM	0.766

====

# experimentDescription: Drug uptake in pre-cannulated Sprague-Dawley rat lung at 10 mg/kg administered via oral gavage after 24 hrs by LC-MS/MS analysis
# Assay type: ADME, organism-based
# measurementSetup: read-out: Drug uptake
Recorded concentration at 24 h by entry

structureNotation	concentration at 24 h [µM]
CCCCCCCCCCCCC(F)(F)[C@H](O)C[C@H](O)[C@H](C)N	44.5
CCCCCCCCCCCCC[C@H](O)C[C@H](O)[C@H](C)N	5.34
C[C@H](N)[C@@H](O)C[C@@H](O)CCCCCCCCCCCCC(F)(F)F	18.7

====

Recorded concentration at 24 h by entry
# experimentDescription: Drug uptake in tumor of human PC3 cells xenografted in athymic NCr-nu/nu mouse at 3 mg/kg, qd administered via oral gavage measured 24 hrs post last dose by LC-MS/MS analysis
# Assay type: ADME, organism-based, Neoplasm, PC-3
# measurementSetup: read-out: Drug uptake
metric: concentration at 24 h (nM)

structureNotation	metric	measureUnit	numericResult
CCCCCCCCCCCCC[C@H](O)C[C@H](O)[C@H](C)N	concentration at 24 h	nM	1050
C[C@H](N)[C@@H](O)C[C@@H](O)CCCCCCCCCCCCC(F)(F)F	concentration at 24 h	nM	3230

====

# experimentDescription: Octanol-buffer partition co-efficient, log D of the compound at 100 uM at pH 7.4 by shake-flask method
# Type: physicochemical
Recorded logD at 100 µM by entry
metric: logD at 100 µM

structureNotation	metric	numericResult
CCCCCCCCCCCCC[C@H](O)C[C@H](O)[C@H](C)N	logD at 100 µM	3.5
C[C@H](N)[C@@H](O)C[C@@H](O)CCCCCCCCCCCCC(F)(F)F	logD at 100 µM	3.24
CCCCCCCCCCCCC(F)(F)[C@H](O)C[C@H](O)[C@H](C)N	logD at 100 µM	1.73

====

Recorded bioavailability by entry
# experimentDescription: Oral bioavailability in pre-cannulated Sprague-Dawley rat at 10 mg/kg administered via gavage after 0.5 to 24 hrs by LC-MS/MS analysis
# Format: ADME, organism-based
# measurementSetup: in vivo

structureNotation	bioavailability / %
C[C@H](N)[C@@H](O)C[C@@H](O)CCCCCCCCCCCCC(F)(F)F	68
CCCCCCCCCCCCC[C@H](O)C[C@H](O)[C@H](C)N	11
CCCCCCCCCCCCC(F)(F)[C@H](O)C[C@H](O)[C@H](C)N	10
